The reported measurements were obtained from PubChem BioAssay (NCI).

# Test system: HOP-62 NSCLC
# measurement-notes: NCI-60 one-dose screen, 48 h (100 = growth as untreated, 0 = no growth, -100 = all killed)
# run-parameters: 10 µM
The panel holds about 83,000 compounds, 20% with a hit somewhere; the sample as a whole holds those more often.
growth values for the molecules below.

[
  {
    "molecule": "COc1ccc(-c2cc(-c3ccc(Cl)cc3)nc(SCCCC(=O)NO)n2)cc1",
    "unit": "%",
    "growth": 5.55
  },
  {
    "molecule": "Cn1cnc([N+](=O)[O-])c1/C=C1\\Oc2ccc(Br)cc2C1=O",
    "unit": "%",
    "growth": 100
  },
  {
    "molecule": "O=[N+]([O-])c1cc(Cl)cc(Cl)c1O",
    "unit": "%",
    "growth": 91.5
  },
  {
    "molecule": "COc1ccc2nc(-c3ccc(Cl)cc3)cc(-c3nnc(SC/C(=N\\O)c4ccccc4)n3-c3ccccc3)c2c1",
    "unit": "%",
    "growth": 109
  },
  {
    "molecule": "CNS(=O)(=O)Oc1ccc(-c2sc3cc(OS(=O)(=O)NC)ccc3c2C(=O)c2ccc(OCCN3CCCCC3)cc2)cc1",
    "unit": "%",
    "growth": 79.8
  },
  {
    "molecule": "NNC(=O)Oc1c(Cl)cc(Cl)cc1[N+](=O)[O-]",
    "unit": "%",
    "growth": 94.6
  },
  {
    "molecule": "Cc1cc(CSc2ccccc2C(=O)N2CC=C(c3ccccc3)CC2)on1",
    "unit": "%",
    "growth": 92.2
  },
  {
    "molecule": "COc1ccc(/C=C/c2nnc(/C=C/c3ccc(OC)c(OC)c3)o2)cc1OC",
    "unit": "%",
    "growth": 35.3
  },
  {
    "molecule": "Cc1[nH]c2ccccc2c1/C=N/Nc1ncnc2sc3c(c12)CCN(CC(=O)OC(C)(C)C)C3",
    "unit": "%",
    "growth": 92.4
  },
  {
    "molecule": "COc1cc(CNC(=O)C2CSC3(C)c4ccccc4C(=O)N23)cc(OC)c1OC (stereo not given)",
    "unit": "%",
    "growth": 90.1
  }
]
